system: RXF 393; experiment: NCI tumour cell line growth inhibition, 48 h
Activity calls are given as the source filed them. No stated cut-off is given here; in the data, active = GI50 up to about 1.1 µM and inactive = higher.
MEASUREMENT_NAME: GI50

Please give GI50 for each item listed below.
1. C[C@]12CCC(=O)C=C1CC[C@@H]1C2CC[C@]2(C)Nc3c(ncn3-c3ccc(F)cc3)CC12 (stereo partly specified)
2. Cc1c(C(=O)O)n2c(C)nnc2c2ccccc12
3. CC(C)=CCC[C@@H](C)C1=C(Nc2ccccc2Cl)C(=O)C(C)=C(O)C1=O
4. CCCCCCOc1ccc(C(=O)NOCc2ccccc2)cc1
5. O=C(O)c1ccc2[nH]c(=O)oc2c1
6. CC1(C)CC(O)C2=C(O1)C(=O)c1ncccc1C2=O (stereo unspecified)
7. O=C1Nc2ccc([N+](=O)[O-])cc2/C1=N/NC(=S)Nc1ccccc1

stdout:
["5.56 µM (inactive)", "> 100 µM (inactive)", "11.7 µM (inactive)", "> 100 µM (inactive)", "> 100 µM (inactive)", "3.4 µM (inactive)", "11.6 µM (inactive)"]

List the reported GI50 of each compound below.
1. CNC(=O)SCC(NC(=O)CCC(N)C(=O)O)C(=O)NCC(=O)O (stereo unspecified)
2. NC(Cc1ccc(OCc2ccccc2)cn1)C(=O)O (stereo unspecified)
3. CC(C)=CCc1c(C)cc2cc3c(c(O)c2c1O)C(=O)C=C(O)C3(CC=C(C)C)C/C=C(\C)CO (stereo unspecified)
4. CC1(C)CCCCCCCCCC2CC2CCC(C)(C)C1=O (stereo unspecified)

stdout:
["> 100 µM (inactive)", "> 100 µM (inactive)", "29 µM (inactive)", "15.4 µM (inactive)"]

---

system: DLD-1; assay: NCI tumour cell line growth inhibition, 48 h
Active and inactive are the calls of the source. Cut-off read from the data, not from the text of the source: active = GI50 up to about 1.1 µM and inactive = higher.
MEASUREMENT_NAME: GI50

Consider the worked cases shown below.
COc1ccc2c(c1)CCCc1cn[nH]c1-2 | > 100 µM (inactive)
O=C1CC(C2(O)C(=O)Nc3ccc([N+](=O)[O-])cc32)c2ccccc21 (centres undefined) | 40 µM (inactive)
C/C=C1/C=CC2c3[nH]c4ccccc4c3CCN2C1 (centres undefined) | > 400 µM (inactive)
CNC(=O)SCC(NC(=O)CCC(N)C(=O)O)C(=O)NCC(=O)O (centres undefined) | > 83 µM (inactive)
CCCCCCCCCCCCCS(=O)(=O)NCC(N)=O | > 100 µM (inactive)

I need GI50 for every entry listed below, if you could help.
1. CC1[C@@]2(CCC(C)(C)O2)O[C@@H]2C=C3C4CCC5Cc6nc7c(nc6C[C@@]5(C)C4C[C@H](O)[C@@]3(C)[C@]12O)CC1CCC2C3=C[C@H]4O[C@@]5(O[C@@](C)(CO)C[C@@H]5O)C(C)[C@@]4(O)[C@]3(C)[C@@H](O)CC2[C@]1(C)C7 (some centres undefined)
2. O=C1NC(=O)/C(=N\c2cccc3c(=O)[nH][nH]c(=O)c23)C(c2nc3ccccc3s2)C1=O (centres undefined)
3. CNC(=S)N/N=C1\CC(c2ccccc2)Oc2ccccc21 (centres undefined)
4. COc1cc(CC(=O)c2ccc3c(c2)OCO3)cc(OC)c1OC

stdout:
1: 0.753 µM (active); 2: > 100 µM (inactive); 3: > 100 µM (inactive); 4: > 100 µM (inactive)
